# Test system: Schistosoma mansoni
# assay-protocol: WHO-TDR: Schistosomiasis
# Type: functional
# Design: concentration or dose not given beside the values
measured-attribute: % Inhibition

What % Inhibition appears in the records for this compound with Schistosoma mansoni? `CN(C)CCN(C(=O)c1cccc(N2C(=O)CCC2=O)c1)c1nc2ccc(Br)cc2s1`
33.3%

What % Inhibition appears in the records for this compound with Schistosoma mansoni? `CN(C)CCCN(C(=O)c1ccc(Br)s1)c1nc2ccccc2s1`
0%

What % Inhibition appears in the records for this compound with Schistosoma mansoni? `CCN(CC)CCSc1ccc(-c2ccc(Cl)cc2)nn1`
0%

What % Inhibition appears in the records for this compound with Schistosoma mansoni? `O=C(NCCNc1ccc(Nc2ccccn2)nn1)Nc1ccc(F)cc1`
0%

What % Inhibition appears in the records for this compound with Schistosoma mansoni? `COC(=O)c1c(NC(=O)c2nc3ccccc3s2)sc2c1CC(C)(C)NC2(C)C`
0%

What % Inhibition appears in the records for this compound with Schistosoma mansoni? `O=C(Cn1c(=O)n(Cc2cccs2)c(=O)c2ncccc21)OCc1ccccc1`
0%

What % Inhibition appears in the records for this compound with Schistosoma mansoni? `O=C(C1CCCC1)N1CCN(c2ccc(-c3ccccn3)nn2)CC1`
41.7%

What % Inhibition appears in the records for this compound with Schistosoma mansoni? `CCN(CC)c1ccc(NC(=O)Cc2csc(NC(=O)c3cc(OC)cc(OC)c3)n2)c(C)c1`
0%

What % Inhibition appears in the records for this compound with Schistosoma mansoni? Cc1ccc(S(=O)(=O)N(CC(O)CNCc2ccco2)c2ccc(F)cc2)cc1 (configuration not stated)
0%

What % Inhibition appears in the records for this compound with Schistosoma mansoni? `Cc1cc(F)ccc1S(=O)(=O)Nc1ccc2c(c1)CN(C(=O)c1ccco1)CC2`
0%

What % Inhibition appears in the records for this compound with Schistosoma mansoni? `Cc1nc2ccc3nc(Nc4nc5c(F)cccc5s4)sc3c2s1`
0%

What % Inhibition appears in the records for this compound with Schistosoma mansoni? CS(=O)(=O)N1CCCCC1C(=O)Nc1nc(-c2nc3ccccc3s2)cs1 (configuration not stated)
0%

What % Inhibition appears in the records for this compound with Schistosoma mansoni? `O=C(CCSc1ccccc1)N(Cc1ccccn1)c1nc2ccccc2s1`
0%

What % Inhibition appears in the records for this compound with Schistosoma mansoni? `Cc1nc(-c2ccccc2)sc1C(=O)Nc1cccc(-c2cn3c(n2)SCC3)c1`
100%

What % Inhibition appears in the records for this compound with Schistosoma mansoni? `O=C(Nc1nc2c(s1)CCCC2)C1CCN(S(=O)(=O)c2ccc(F)cc2)CC1`
0%

What % Inhibition appears in the records for this compound with Schistosoma mansoni? `COc1ccc(Cl)cc1NC(=O)CSc1nccn1-c1cccc(C)c1C`
0%

What % Inhibition appears in the records for this compound with Schistosoma mansoni? `COc1ccc(Cl)c2sc(N(CCCN(C)C)C(=O)c3ccc(Br)s3)nc12`
100%

What % Inhibition appears in the records for this compound with Schistosoma mansoni? `COc1ccc(S(=O)(=O)CC(=O)Nc2sc(-c3ccccc3)cc2C(N)=O)cc1`
0%

What % Inhibition appears in the records for this compound with Schistosoma mansoni? `Fc1cccc2sc(Nc3nc4c(s3)CCCC4)nc12`
0%

What % Inhibition appears in the records for this compound with Schistosoma mansoni? `O=C(NCCc1ccc(Cl)cc1)c1csc(NS(=O)(=O)c2ccccc2)n1`
0%

What % Inhibition appears in the records for this compound with Schistosoma mansoni? `Cc1cc(C)c(S(=O)(=O)NCCNc2ccc(Nc3cccc(C)n3)nn2)c(C)c1`
33.3%

What % Inhibition appears in the records for this compound with Schistosoma mansoni? CN(C)C(CNS(=O)(=O)c1ccc(Cl)s1)c1ccc(F)cc1 (configuration not stated)
0%
